- Tested on: KRAS patient-derived spheroids with HUVEC/MSC, viability
- Test details: Anticancer human tumor 941728-121-R-J1-PDC patient-derived lung adenocarcinoma cell line growth inhibition [KRAS2]
- Protocol conditions: second compound 0.1 µM; first compound 0.01 µM; stronger effect = lower value
Measurement type: viability, T/C (%)
Quick reminder: number only, in %, skip the unit.

CC(=O)OC12COC1CC(O)C1(C)C(=O)C(O)C3=C(C)C(OC(=O)C(O)C(NC(=O)OC(C)(C)C)c4ccccc4)CC(O)(C(OC(=O)c4ccccc4)C21)C3(C)C (stereo not given) + COc1cc2nc(C)nc(NC(C)c3cc(N)cc(C(F)(F)F)c3)c2cc1OC1CCOC1 | 37.4
CC(C)n1nc(-c2ccc3oc(N)nc3c2)c2c(N)ncnc21 + COc1cc2nc(C)nc(NC(C)c3cc(N)cc(C(F)(F)F)c3)c2cc1OC1CCOC1 | 33.3
CC(=O)OC12COC1CC(O)C1(C)C(=O)C(O)C3=C(C)C(OC(=O)C(O)C(NC(=O)OC(C)(C)C)c4ccccc4)CC(O)(C(OC(=O)c4ccccc4)C21)C3(C)C (stereo not given) + CNCc1ccccc1-c1csc(C(C)Nc2nc(C)nc3cc(OC)c(OC)cc23)c1 | 35.7
CC(C)n1nc(-c2ccc3oc(N)nc3c2)c2c(N)ncnc21 + C=CC(=O)N1CCN(c2nc(=O)n(-c3c(C)ccnc3C(C)C)c3nc(-c4c(O)cccc4F)c(F)cc23)C(C)C1 | 5.92

Next molecule, please.
Quick check: viability, T/C of CC(=O)OC12COC1CC(O)C1(C)C(=O)C(O)C3=C(C)C(OC(=O)C(O)C(NC(=O)OC(C)(C)C)c4ccccc4)CC(O)(C(OC(=O)c4ccccc4)C21)C3(C)C (stereo not given) + C=CC(=O)N1CCN(c2nc(OCC3CCCN3C)nc3c2CCN(c2cccc4cccc(C)c24)C3)CC1CC#N ?
24.6

----------
- System: KRAS patient-derived spheroids with HUVEC/MSC, viability
- Test details: Anticancer human tumor 941728-121-R-J1-PDC cell line growth inhibition [KRAS2];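 note: spheroids exposed to agents for seven days before readout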
- Protocol conditions: curve of first compound; second compound 0.1 µM
# reported IC50; entries follow
The reply should contain only the number, in nM.

COC(=O)c1ccc2c(C(=Nc3ccc(N(C)C(=O)CN4CCN(C)CC4)cc3)c3ccccc3)c(O)[nH]c2c1 + COc1cc2nc(C)nc(NC(C)c3cc(N)cc(C(F)(F)F)c3)c2cc1OC1CCOC1 | 10000

Let us move to another entry and its IC50.
# lookup: IC50 of Cn1nccc1Nc1nccc(-c2cc3c(s2)C(C)(C)N(CCN2CCOCC2)C3=O)n1 + CC1OCC2(CCN(c3cnc(Sc4ccnc(N)c4Cl)c(N)n3)CC2)C1N
47.7

----------
- Test system: KRAS patient-derived spheroids with HUVEC/MSC, viability
- Test details: Anticancer human tumor 941728-121-R-J1-PDC cell line growth inhibition [KRAS2];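 note: spheroids exposed to agents for seven days before readout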
- Protocol conditions: curve of first compound; second compound 0.1 µM
pIC50: −log10 of the molar value.
Listed here: items and their measured pIC50.

Cn1ncnc1[C@H]1c2n[nH]c(=O)c3cc(F)cc(c23)N[C@@H]1c1ccc(F)cc1 + CNCc1ccccc1-c1csc(C(C)Nc2nc(C)nc3cc(OC)c(OC)cc23)c1 | 8.19
O=C(c1cc(Cc2n[nH]c(=O)c3ccccc23)ccc1F)N1CCN(C(=O)C2CC2)CC1 + CC1OCC2(CCN(c3cnc(Sc4ccnc(N)c4Cl)c(N)n3)CC2)C1N | > 7.50

Next compound, please.
Give the measured pIC50 of CC(C)NCC(C(=O)N1CCN(c2ncnc3c2C(C)CC3O)CC1)c1ccc(Cl)cc1 (stereo not drawn) + CC1OCC2(CCN(c3cnc(Sc4ccnc(N)c4Cl)c(N)n3)CC2)C1N .
> 7.50
